Attribution: paper PMC7948503

# system tested: T1, Rluc-ADGRG2-ΔGPS-β M839A (mouse, UniProt Q8CJ12-3 38-995, M839A)
# T1 construct: ADGRG2 (GPR64), mouse, ADGRG2-ΔGPS-β: the entire ECD removed; source: HEK293, transfected, on cells; not shown: Rluc, N-terminal, kept
# T1 sequence (Q8CJ12 other isoform, or with tags, fused parts or gaps M839A | M839A | M839A M839A): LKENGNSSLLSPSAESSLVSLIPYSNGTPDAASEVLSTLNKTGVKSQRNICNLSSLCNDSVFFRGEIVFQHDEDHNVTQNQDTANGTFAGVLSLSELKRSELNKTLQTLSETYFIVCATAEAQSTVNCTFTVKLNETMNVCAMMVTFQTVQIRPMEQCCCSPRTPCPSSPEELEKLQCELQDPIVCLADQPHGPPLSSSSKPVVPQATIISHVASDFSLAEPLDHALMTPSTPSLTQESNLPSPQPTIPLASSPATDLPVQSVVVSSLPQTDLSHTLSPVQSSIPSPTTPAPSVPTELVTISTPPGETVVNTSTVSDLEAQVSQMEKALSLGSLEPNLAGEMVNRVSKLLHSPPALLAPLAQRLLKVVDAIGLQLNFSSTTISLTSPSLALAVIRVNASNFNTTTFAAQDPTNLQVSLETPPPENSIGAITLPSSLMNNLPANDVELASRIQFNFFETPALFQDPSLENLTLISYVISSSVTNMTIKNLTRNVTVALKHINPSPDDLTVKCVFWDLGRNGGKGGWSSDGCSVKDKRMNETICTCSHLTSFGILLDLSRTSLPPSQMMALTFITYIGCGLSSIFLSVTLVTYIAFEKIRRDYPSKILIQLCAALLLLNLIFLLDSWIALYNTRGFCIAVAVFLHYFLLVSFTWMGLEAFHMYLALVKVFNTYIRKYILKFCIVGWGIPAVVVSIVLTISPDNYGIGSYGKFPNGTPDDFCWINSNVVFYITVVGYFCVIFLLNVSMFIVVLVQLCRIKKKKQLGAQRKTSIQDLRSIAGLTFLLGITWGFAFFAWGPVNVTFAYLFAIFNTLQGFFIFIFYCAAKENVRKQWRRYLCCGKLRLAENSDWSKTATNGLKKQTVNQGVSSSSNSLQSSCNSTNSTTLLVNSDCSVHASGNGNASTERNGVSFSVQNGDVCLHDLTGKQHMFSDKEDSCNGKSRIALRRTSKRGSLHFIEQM
# assay comment: FRET or BRET; HEK293 cells transfected with Rluc-ADGRG2-ΔGPS-β WT or mutants, stimulated by increasing concentrations of FITC-conjugated VPM-p15; saturation curves fitted with GraphPad; each experiment repeated 6 times
# measurement conditions: one partner purified
pEC50: −log10 of the molar value. Non-standard residues stand in square brackets, D forms with d. Primed or numbered codes have the meaning given here. No end group written: not given here. Phe(4-Me) = Cc1ccc(C[C@H](N)C(=O)O)cc1; FITC′ = not defined here
endpoint name: pEC50

INSERT INTO results (binder, endpoint_name, reported_result) VALUES
  ('VS[Phe(4-Me)]GILLDLSRTSLP-{FITC′} [FITC-conjugated VPM-p15 (ADGRG2 Stachel peptide p15 T1V/F3Phe(4-Me))]', 'pEC50', 6.05);
